Notes on pIC50 obtained with Acetylcholinesterase (Homo sapiens, UniProt P22303).
Sequence (P22303 whole entry): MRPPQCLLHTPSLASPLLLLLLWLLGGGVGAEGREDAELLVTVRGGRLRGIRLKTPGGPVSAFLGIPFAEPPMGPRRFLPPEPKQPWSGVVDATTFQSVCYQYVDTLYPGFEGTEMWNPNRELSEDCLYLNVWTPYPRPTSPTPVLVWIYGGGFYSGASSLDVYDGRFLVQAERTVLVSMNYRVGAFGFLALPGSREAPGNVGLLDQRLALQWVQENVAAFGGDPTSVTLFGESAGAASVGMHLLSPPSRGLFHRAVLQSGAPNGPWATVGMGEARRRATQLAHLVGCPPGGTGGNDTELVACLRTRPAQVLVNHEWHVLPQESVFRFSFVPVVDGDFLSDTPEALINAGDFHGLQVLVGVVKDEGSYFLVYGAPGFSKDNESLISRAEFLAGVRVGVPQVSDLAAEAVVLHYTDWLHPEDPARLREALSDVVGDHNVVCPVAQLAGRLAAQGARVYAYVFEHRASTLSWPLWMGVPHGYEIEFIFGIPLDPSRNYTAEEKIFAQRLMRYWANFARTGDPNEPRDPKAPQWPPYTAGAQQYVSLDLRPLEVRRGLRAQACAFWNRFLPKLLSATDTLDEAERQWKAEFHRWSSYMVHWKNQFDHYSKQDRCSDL
pIC50: −log10 of the molar value.

>  <molecule>
CO[C@@H]1C=C[C@@]23c4cc5c(cc4CN(CCc4ccccc4)[C@@H]2C(=O)N(C)[C@H]3C1)OCO5

>  <measuredTarget>
Acetylcholinesterase (Homo sapiens, UniProt P22303)

>  <observedMeasurement>
< 3.70

$$$$

Look at each molecule and report its pIC50.
1. COc1cc2c(cc1OC)[C@@H]1[C@H](O)[C@@H](OC)C=C3CCN(C2)[C@H]31 [GALANTHINE]
2. COc1ccc2c3c1O[C@H]1C[C@@H](O)C=C[C@@]31[C@H](O)C[N@@+](C)([O-])C2

**Result**
1: 5.21; 2: < 3.70

Need pIC50 for each of these molecules.
1. CO[C@@H]1C=C[C@@]23c4cc5c(cc4C(=O)N(CCC(C)C)[C@@H]2C(=O)N(C)[C@H]3C1)OCO5
2. CO[C@@H]1C=C[C@@]23c4cc5c(cc4C[N@@+]([O-])(CCc4ccc(O)cc4)[C@@H]2C(=O)N(C)[C@H]3C1)OCO5

**Result**
1. < 3.70
2. < 3.70

Look at each molecule and report its pIC50.
1. CO[C@@H]1C=C[C@@]23c4cc5c(cc4C[N@@+]([O-])(CCO)[C@@H]2C(=O)N(C)[C@H]3C1)OCO5
2. CO[C@@H]1C=C[C@@]23c4cc5c(cc4CN(CCC(C)C)[C@]2(C(C)=O)C(=O)N(C)[C@H]3C1)OCO5

**Result**
[3.90, "< 3.70"]

Every entry's value here was drawn from ChEMBL document CHEMBL4130435.
